All values here come from patent EP2444396A1.

experiment: Solubility in organic solvents
Assay type: physicochemical
measurement.setup: methanol, organic solvent or mixture, thermodynamic from solid; MeOH
measured.metric: solubility

Request: Item under review: `O=[N+]([O-])c1cccc(-c2nc(-c3ccccc3)c(-c3ccccc3)[nH]2)c1` . Reported solubility?
Result: ~200 µg/mL
